What Her2 level was measured for each of the following?
target: Receptor tyrosine-protein kinase erbB-2 (Homo sapiens); assay: reducers of endogenous Her2 protein level, primary screen, SKBR3 breast tumor cells, AlphaScreen, ATP viability (AID 461); conditions: 18-24 h, at 10 µM, hits give low values;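 further: lower value means less Her2 protein in the cells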
Number only, in %; omit the unit.

Her2 level for `CCSc1nnc(NC(=O)C(CC)(C(F)(F)F)C(F)(F)F)s1` is 120

Noted for `Cc1nn(-c2ccc(F)cc2)c2nc(N)c(C#N)c(-c3cccs3)c12` : its Her2 level reads 75.5

Sure, the documented Her2 level for `CC1CCN(C(=O)CSc2nc3ccccc3[nH]2)CC1` is 99.5

# compound Cc1cc(NC(=O)CCC(=O)N(CCc2ccccc2)C(C(=O)NC2CCCC2)c2ccco2)no1 (stereo unspecified) ; its Her2 level = 99

Memo: `CN(C)/C=N/c1ncnc2c1cnn2-c1ccc(C(F)(F)F)cn1` , reported Her2 level: 100

Reported Her2 level for `O=C1c2ccccc2CN1CCNS(=O)(=O)c1ccc(Cl)cc1` was 92.5

The value of Her2 level measured for the compound COc1ccc(Cn2nnnc2C(c2ccccc2OC)N2CCC(C(N)=O)CC2)cc1 (stereo unspecified) turned out to be 91

compound `COCCn1c(SCC(=O)Nc2cccc(OC)c2)nnc1-c1ccc(Cl)cc1` , Her2 level observed: 71.5

Field Her2 level (entry `O=C(O)c1cc2c([nH]c1=O)CCCC2` ) reads 81.5

// Her2 level lookup, compound = `Clc1cccc(Nc2c3c(nc4ncnn24)CCC3)c1` , result: 82.5

In plain terms, O=C(NCCN1CCOCC1)C1CC(=O)N(c2ccc(F)c(Cl)c2)C1 (stereo unspecified) has a documented Her2 level of 111

----------
assay: reversal of MRP1-mediated doxorubicin resistance, pilot screen, H69AR cells, doxorubicin co-treatment (AID 601); conditions: H69AR cells + 2 uM doxorubicin, CellTiter-Glo, 72 h; at 10 µM; hits give high values
Please note: differential viability (reversal) exactly at 10% is -1. Only values below 10% get 1.

### Prompt hey, is differential viability (reversal) for `O=C(NCCc1ccccc1)C1CCN(S(=O)(=O)N2CCC3(CC2)OCCO3)CC1` lower than 10% or not?
### Response -1

### Prompt Quick check: does `Cc1ccc(-n2ncc3c(Nc4c(C)n(C)n(-c5ccccc5)c4=O)ncnc32)c(C)c1` have differential viability (reversal) under 10%?
### Response 1

### Prompt Consider CC(c1ccccc1)N1C(=O)c2ccc(C(=O)NCc3ccco3)cc2C1=O (stereo unspecified) . Does its differential viability (reversal) lie strictly below 10%?
### Response 1

### Prompt Field: below-cutoff. Rule: recorded differential viability (reversal) strictly less than 10%. Subject: `COc1cc(CN2CCN(C(=O)CC(C)C)CC2)cc(OC)c1O`
### Response 1

### Prompt Please state whether differential viability (reversal) is below 10% for `CN(C(=O)c1ccccn1)c1nnc(-c2ccncc2)s1`
### Response -1

### Prompt For COc1ccc(CCNC(=O)CC2COc3ccccc3O2)cc1OC (stereo unspecified) , is the recorded differential viability (reversal) below the cut-off of 10%?
### Response 1

### Prompt Is differential viability (reversal) strictly under 10% for the entry `O=C(CCSc1ccccc1)N1CCN(C(=O)c2ccco2)CC1` ?
### Response -1

### Prompt I wonder whether `Cc1ccc(Nc2cc(-n3nc(C)cc3C)ncn2)cc1` has differential viability (reversal) below 10%. Can you tell?
### Response 1

### Prompt Given the entry O=C1NC2=C(C(=O)CCC2)C(c2ccc3ncccc3c2)N1 (stereo unspecified) , would its reported differential viability (reversal) be below 10%?
### Response -1

### Prompt is_below(differential viability (reversal), 10%) for `O=C(CSc1nc2[nH]ncc2c(=O)n1-c1ccccc1Br)NCc1ccco1` ?
### Response 1

Data provenance is PubChem BioAssay.
